The entries below are paired with their reported melting point.

Consider the worked cases shown below.
{"columns": ["Molecule", "melting point"],
 "data": [
  ["CCc1c2c(nn1CC)c(N)nc1ncccc12", "286 to 288 °C"],
  ["CCC(C(=O)N(C)C)n1cc(Br)cn1 (centres undefined)", "97 to 100 °C"],
  ["CCOc1ccc(C2=NC[C@@H](O)[C@H](c3ccccc3)O2)cc1 (racemic)", "124 °C"]
]}

What value of melting point has been reported for the following molecule? N#CCc1ccc(NC(=O)C=C2CC(C(=O)O)Nc3cc(Cl)cc(Cl)c32)cc1 (racemic)
200 to 202 °C

Returns the measured melting point for the input molecule. Input: CCc1nc2cc(N3CCN(C)CC3)nc(CC)n2n1
87 to 88 °C

What value of melting point has been recorded for this entry: Cc1ccc2c3c(ccc2n1)OC[C@H](CN1CCCN(c2ccc4cc(C#N)ccc4n2)CC1)O3
80 to 85 °C

Measured values drawn from a melting point compilation (Tetko et al.; mined from patent text by program, amines drawn as free bases though some values may be those of a salt) for this set.
